# system: Quinolone resistance protein NorA (Staphylococcus aureus, UniProt P0A0J7)
# experiment: Inhibition of Staphylococcus aureus 1199B NorA assessed as reduction in ethidium bromide efflux by fluorescence assay
measurement_type: pIC50
The value called pIC50 is obtained by taking minus log10 of the concentration in mol/L.

Q: I have this compound here, COc1cc(O)c2c(C)c(-c3ccccc3)c(=O)[nH]c2c1 , and I need its recorded pIC50.
A: 4.74

* * *

# experiment: Inhibition of bacterial AmpC
# Set-up: species or system Bacteria
measurement_type: pKi
The value called pKi is obtained by taking minus log10 of the concentration in mol/L.

                        structure_as_smiles  measurement_type  test_value
0  O=S(=O)(NCB(O)O)c1ccc(-c2nnn[nH]2)cc1C(F)(F)F               pKi       10.30

Q: I have this compound here, O=S(=O)(NCB(O)O)c1ccc(-c2nnn[nH]2)nc1 , and I need its recorded pKi.
A: 9.10
